Values were extracted from the kinase profiling compilation of Christmann-Franck et al. (2016).

# Measured on: HIPK2 (human) (UniProt Q9H2X6)
# Sequence (Q9H2X6 whole entry, looked up): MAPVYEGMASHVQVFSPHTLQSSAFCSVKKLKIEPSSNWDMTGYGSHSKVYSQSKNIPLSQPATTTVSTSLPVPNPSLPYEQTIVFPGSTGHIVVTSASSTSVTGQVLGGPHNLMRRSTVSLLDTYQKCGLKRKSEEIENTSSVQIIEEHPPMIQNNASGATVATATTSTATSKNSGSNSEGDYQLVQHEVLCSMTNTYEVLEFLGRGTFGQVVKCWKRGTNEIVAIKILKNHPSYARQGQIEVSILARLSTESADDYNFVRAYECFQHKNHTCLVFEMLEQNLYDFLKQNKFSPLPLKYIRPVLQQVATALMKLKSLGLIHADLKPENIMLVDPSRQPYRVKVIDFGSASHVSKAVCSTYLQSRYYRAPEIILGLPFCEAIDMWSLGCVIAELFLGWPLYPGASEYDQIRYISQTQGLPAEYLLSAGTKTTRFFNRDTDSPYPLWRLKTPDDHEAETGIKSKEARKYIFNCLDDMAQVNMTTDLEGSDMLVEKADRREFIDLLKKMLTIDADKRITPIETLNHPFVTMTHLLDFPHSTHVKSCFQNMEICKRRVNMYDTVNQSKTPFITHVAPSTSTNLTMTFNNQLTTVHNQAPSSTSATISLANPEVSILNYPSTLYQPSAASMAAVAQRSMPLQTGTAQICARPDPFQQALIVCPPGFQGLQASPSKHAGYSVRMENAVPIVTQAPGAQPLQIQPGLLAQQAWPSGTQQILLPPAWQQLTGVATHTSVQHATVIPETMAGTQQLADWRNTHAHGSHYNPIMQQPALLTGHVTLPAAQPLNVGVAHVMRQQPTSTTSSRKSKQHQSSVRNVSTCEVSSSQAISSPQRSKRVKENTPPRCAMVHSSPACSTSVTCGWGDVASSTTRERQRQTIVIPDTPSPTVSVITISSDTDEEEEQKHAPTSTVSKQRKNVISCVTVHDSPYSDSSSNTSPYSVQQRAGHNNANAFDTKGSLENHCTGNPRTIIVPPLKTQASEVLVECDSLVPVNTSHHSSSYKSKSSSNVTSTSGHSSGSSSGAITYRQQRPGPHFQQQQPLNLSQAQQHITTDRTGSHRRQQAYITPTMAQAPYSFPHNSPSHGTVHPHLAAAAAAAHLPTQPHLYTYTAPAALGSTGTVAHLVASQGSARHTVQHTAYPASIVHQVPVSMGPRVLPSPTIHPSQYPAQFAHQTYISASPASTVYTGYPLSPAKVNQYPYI
# Test name: radiometric filter-binding kinase assay, Kinase HotSpot
# Experimental conditions: compound 0.5 µM; ATP 10 µM
Could you please report measured residual activity for the items listed next?
Only the number, expressed in %, is required.

Task: Quick one: residual activity of "CCCC(=O)Oc1ccc2[nH]c(C(=O)c3cc4ccccc4[nH]3)cc2c1" ?
Result: 92.1

Task: Now try "Nc1ncnc2c1c(-c1ccc(Oc3ccccc3)cc1)cn2C1CCCC1" .
Result: 106

Task: Now try CO[C@H]1CC2CC[C@@H](C)[C@@](O)(O2)C(=O)C(=O)N2CCCC[C@H]2C(=O)OC([C@H](C)C[C@@H]2CC[C@@H](O)[C@H](OC)C2)CC(=O)[C@H](C)/C=C(\C)[C@@H](O)[C@@H](OC)C(=O)[C@H](C)C[C@H](C)/C=C/C=C/C=C/1C (some centres undefined) .
Result: 88

Task: Now try "O=c1cc(N2CCOCC2)oc2c1ccc1ccccc12" .
Result: 105
